Data provenance is the supplement of paper PMC6757056.

B1: library; a variant is named by its letters at N, in order (parent)
chain: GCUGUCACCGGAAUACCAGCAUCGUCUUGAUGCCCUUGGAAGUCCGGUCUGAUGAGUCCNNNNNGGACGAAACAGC

- Variants of: B1
- Experimental Protocol: FACS-Seq fitted mean relative fluorescence mCherry/BFP without ligand (log10 relative fluorescence); higher = higher reporter protein expression
- Details: HEK293T, ligand present: no
Readout Kind: FACS-Seq fitted mean (log10)

Use the examples below as a reference point.
1) UUGUG :: 0.172
2) GAUGG :: -0.543
3) UCGCU :: 0.431
4) CUCCU :: 0.814
5) CACUC :: 1

Q: Any idea what FACS-Seq fitted mean (log10) was measured for UUGCG ?
Result: 1.18

Q: Any idea what FACS-Seq fitted mean (log10) was measured for UAACG ?
Result: 0.784

Q: Any idea what FACS-Seq fitted mean (log10) was measured for CUGCU ?
Result: 0.644

Q: Any idea what FACS-Seq fitted mean (log10) was measured for CAGGC ?
Result: 0.86

Q: Any idea what FACS-Seq fitted mean (log10) was measured for CAAAU ?
Result: 0.264

Q: Any idea what FACS-Seq fitted mean (log10) was measured for UCUAA ?
Result: 0.476

Q: Any idea what FACS-Seq fitted mean (log10) was measured for CAUGC ?
Result: 0.705

Q: Any idea what FACS-Seq fitted mean (log10) was measured for GAUCU ?
Result: 0.704

Q: Any idea what FACS-Seq fitted mean (log10) was measured for CUAUA ?
Result: 0.141

Q: Any idea what FACS-Seq fitted mean (log10) was measured for UAACC ?
Result: 0.589

Q: Any idea what FACS-Seq fitted mean (log10) was measured for UUUAA ?
Result: 0.514

Q: Any idea what FACS-Seq fitted mean (log10) was measured for UCGAA ?
Result: 0.342

Q: Any idea what FACS-Seq fitted mean (log10) was measured for UAUAC ?
Result: 0.747

Q: Any idea what FACS-Seq fitted mean (log10) was measured for UCAAG ?
Result: 0.737

Q: Any idea what FACS-Seq fitted mean (log10) was measured for UUGAU ?
Result: 0.68

Q: Any idea what FACS-Seq fitted mean (log10) was measured for ACUGC ?
Result: 0.883

Q: Any idea what FACS-Seq fitted mean (log10) was measured for UGCGC ?
Result: 0.574

Q: Any idea what FACS-Seq fitted mean (log10) was measured for UAGAC ?
Result: 0.814

Q: Any idea what FACS-Seq fitted mean (log10) was measured for CCACA ?
Result: 0.241

Q: Any idea what FACS-Seq fitted mean (log10) was measured for GAAUG ?
Result: 0.627

Q: Any idea what FACS-Seq fitted mean (log10) was measured for UACAG ?
Result: 1.02

Q: Any idea what FACS-Seq fitted mean (log10) was measured for UAUUG ?
Result: 0.752

Q: Any idea what FACS-Seq fitted mean (log10) was measured for AUAUC ?
Result: 0.978
